Test system: 186277-243-T-J2-PDC complex spheroid growth, % test/control;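 further: spheroids exposed to agents for 7 days; 100% = DMSO vehicle control wells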
Test protocol: Anticancer human tumor 186277-243-T-J2-PDC patient-derived colon adenocarcinoma cell line growth inhibition [Asc]
Conditions: second compound 0.316 µM; first compound 1 µM; hits give low values
From the text: Multicellular complex tumor spheroid response to apoptosis pathway targeting inhibitors Alrizomadlin, Pelcitoclax, and Dasminapant in combination with a variety of drugs and investigational agents in selected tumor cell lines […] Compounds. […] If the clinical Cmax for an agent had not been determined, the highest concentration tested was 10 microM. […]
Measure: viability, T/C (%)
One number for each entry, in %.

For the 3 compounds below, give their viability, T/C values.
1. COc1c(OCCCN2CCOCC2)ccc2c3n(c(=NC(=O)c4cnc(N)nc4)nc12)CCN3 + Cc1c(S(C)(=O)=O)c(-c2cc(F)cc(N3CCN(c4ccc(NS(=O)(=O)c5ccc(NC(CCN6CCC(C(=O)OCCCP(=O)(O)O)CC6)CSc6ccccc6)c(S(=O)(=O)C(F)(F)F)c5)cc4)CC3)c2)c(-c2ccc(Cl)cc2)n1C(C)C
2. COc1c(OCCCN2CCOCC2)ccc2c3n(c(=NC(=O)c4cnc(N)nc4)nc12)CCN3 + CNC(C)C(=O)NC1CN(S(=O)(=O)c2cccc(S(=O)(=O)N3CCC4CCC(C(=O)NC(c5ccccc5)c5ccccc5)N4C(=O)C(NC(=O)C(C)NC)C3)c2)CCC2CCC(C(=O)NC(c3ccccc3)c3ccccc3)N2C1=O
3. CCN1CCN(Cc2ccc(Nc3ncc(F)c(-c4cc(F)c5nc(C)n(C(C)C)c5c4)n3)nc2)CC1 + Cc1c(S(C)(=O)=O)c(-c2cc(F)cc(N3CCN(c4ccc(NS(=O)(=O)c5ccc(NC(CCN6CCC(C(=O)OCCCP(=O)(O)O)CC6)CSc6ccccc6)c(S(=O)(=O)C(F)(F)F)c5)cc4)CC3)c2)c(-c2ccc(Cl)cc2)n1C(C)C

[4.21, 18.5, 67.7]

For the 3 compounds below, give their viability, T/C values.
1. O=C(c1ccc(F)c(F)c1Nc1ccc(I)cc1F)N1CC(O)([C@@H]2CCCCN2)C1 + CNC(C)C(=O)NC1CN(S(=O)(=O)c2cccc(S(=O)(=O)N3CCC4CCC(C(=O)NC(c5ccccc5)c5ccccc5)N4C(=O)C(NC(=O)C(C)NC)C3)c2)CCC2CCC(C(=O)NC(c3ccccc3)c3ccccc3)N2C1=O
2. O=C(c1cc(Cc2n[nH]c(=O)c3ccccc23)ccc1F)N1CCN(C(=O)C2CC2)CC1 + CNC(C)C(=O)NC1CN(S(=O)(=O)c2cccc(S(=O)(=O)N3CCC4CCC(C(=O)NC(c5ccccc5)c5ccccc5)N4C(=O)C(NC(=O)C(C)NC)C3)c2)CCC2CCC(C(=O)NC(c3ccccc3)c3ccccc3)N2C1=O
3. C=C(F)C(=O)N1CCN(c2nc(OCC3CCCN3C)nc3c2CCN(c2cccc4cccc(Cl)c24)C3)CC1CC#N (stereo unspecified) + CNC(C)C(=O)NC1CN(S(=O)(=O)c2cccc(S(=O)(=O)N3CCC4CCC(C(=O)NC(c5ccccc5)c5ccccc5)N4C(=O)C(NC(=O)C(C)NC)C3)c2)CCC2CCC(C(=O)NC(c3ccccc3)c3ccccc3)N2C1=O

1. 7.61
2. 117
3. 118
